Tested on: P388 cancer cell
EXPERIMENT SUMMARY: Anti-tumor test, P388-inoculated mice (survival effect)
Format: in vivo
APPLIED CONDITIONS: Mus musculus, P388, ip; 25 mg/Kg/day, intraperitoneal, CDF1 mice, of six mice; read-out: Tumored Survivors (converted)

>  <COMPOUND>
CC[C@H](C)[C@H](NC(=O)N(CCCl)N=O)C(=O)Nc1nncs1

>  <responders at 25 mg/kg (%)>
50

$$$$
>  <COMPOUND>
O=NN(CCCl)C(=O)N[C@@H](C(=O)Nc1nncs1)c1ccccc1

>  <responders at 25 mg/kg (%)>
33.3

$$$$
>  <COMPOUND>
CSCC[C@H](NC(=O)N(CCCl)N=O)C(=O)Nc1nncs1

>  <responders at 25 mg/kg (%)>
33.3

$$$$
>  <COMPOUND>
CC(C)CC(NC(=O)N(CCCl)N=O)C(=O)Nc1nncs1 (centres unmarked)

>  <responders at 25 mg/kg (%)>
16.7

$$$$
>  <COMPOUND>
CC(C)C[C@H](NC(=O)N(CCCl)N=O)C(=O)Nc1nncs1

>  <responders at 25 mg/kg (%)>
33.3

$$$$

###

Reported LD50 values follow for various compounds
EXPERIMENT SUMMARY: Acute toxicity (median lethal dose, intraperitoneal)
APPLIED CONDITIONS: mouse, in vivo, ip; intraperitoneal injection, ddy mice, Litchfield-Wilcoxon method
REPORTED ENDPOINT: LD50 (mg/kg)

>  <COMPOUND>
CSCC[C@H](NC(=O)N(CCCl)N=O)C(=O)Nc1nncs1 [H]

>  <REPORTED ENDPOINT>
LD50

>  <VALUE>
67

$$$$
>  <COMPOUND>
CC(C)CC(NC(=O)N(CCCl)N=O)C(=O)Nc1nncs1 (stereo not drawn) [E]

>  <REPORTED ENDPOINT>
LD50

>  <VALUE>
82

$$$$
>  <COMPOUND>
CC(C)[C@H](NC(=O)N(CCCl)N=O)C(=O)Nc1nncs1 [D]

>  <REPORTED ENDPOINT>
LD50

>  <VALUE>
49

$$$$
>  <COMPOUND>
O=NN(CCCl)C(=O)N[C@@H](C(=O)Nc1nncs1)c1ccccc1 [I]

>  <REPORTED ENDPOINT>
LD50

>  <VALUE>
69

$$$$
>  <COMPOUND>
CC[C@H](C)[C@H](NC(=O)N(CCCl)N=O)C(=O)Nc1nncs1 [G]

>  <REPORTED ENDPOINT>
LD50

>  <VALUE>
78

$$$$
>  <COMPOUND>
O=NN(CCCl)C(=O)N[C@@H](Cc1c[nH]c2ccccc12)C(=O)Nc1nncs1 [M]

>  <REPORTED ENDPOINT>
LD50

>  <VALUE>
73

$$$$
>  <COMPOUND>
CC(C)[C@H](NC(=O)N(CCCl)N=O)C(=O)O [B]

>  <REPORTED ENDPOINT>
LD50

>  <VALUE>
72

$$$$
>  <COMPOUND>
O=NN(CCCl)C(=O)Nc1nncs1 [A]

>  <REPORTED ENDPOINT>
LD50

>  <VALUE>
78

$$$$
>  <COMPOUND>
CC(C)[C@@H](NC(=O)N(CCCl)N=O)C(=O)Nc1nncs1 [N]

>  <REPORTED ENDPOINT>
LD50

>  <VALUE>
68

$$$$

###

System: P388 cancer cell
EXPERIMENT SUMMARY: Anti-tumor test, P388-inoculated mice (survival effect)
Format: in vivo
APPLIED CONDITIONS: Mus musculus, P388, ip; 25 mg/Kg/day, intraperitoneal, 24 hours and 5 days after inoculation, CDF1 mice; read-out: Survival Effect T/C
Parameter response vs control in vivo at 25 mg/kg: see the listing below.

>  <COMPOUND>
CSCC[C@H](NC(=O)N(CCCl)N=O)C(=O)Nc1nncs1 [H]

>  <SYSTEM UNDER TEST>
P388 cancer cell

>  <response vs control in vivo at 25 mg/kg>
294%

$$$$
>  <COMPOUND>
CC(C)CC(NC(=O)N(CCCl)N=O)C(=O)Nc1nncs1 (stereo not shown) [E]

>  <SYSTEM UNDER TEST>
P388 cancer cell

>  <response vs control in vivo at 25 mg/kg>
303%

$$$$
>  <COMPOUND>
O=NN(CCCl)C(=O)N[C@@H](Cc1c[nH]c2ccccc12)C(=O)Nc1nncs1 [M]

>  <SYSTEM UNDER TEST>
P388 cancer cell

>  <response vs control in vivo at 25 mg/kg>
294%

$$$$
>  <COMPOUND>
O=NN(CCCl)C(=O)Nc1nncs1 [A]

>  <SYSTEM UNDER TEST>
P388 cancer cell

>  <response vs control in vivo at 25 mg/kg>
173%

$$$$

###

Here the recorded responders at 25 mg/kg is given for each entry.
System: P388 cancer cell
EXPERIMENT SUMMARY: Anti-tumor test, P388-inoculated mice (survival effect)
Format: in vivo
APPLIED CONDITIONS: Mus musculus, P388, ip; 25 mg/Kg/day, intraperitoneal, CDF1 mice, of six mice; read-out: Cure (converted)

>  <MOLECULE>
O=NN(CCCl)C(=O)N[C@@H](C(=O)Nc1nncs1)c1ccccc1 [I]

>  <responders at 25 mg/kg, %>
33.3

$$$$
>  <MOLECULE>
O=NN(CCCl)C(=O)N[C@@H](Cc1ccccc1)C(=O)Nc1nncs1 [J]

>  <responders at 25 mg/kg, %>
83.3

$$$$
>  <MOLECULE>
CC(C)C[C@H](NC(=O)N(CCCl)N=O)C(=O)Nc1nncs1 [F]

>  <responders at 25 mg/kg, %>
50

$$$$
>  <MOLECULE>
CSCC[C@H](NC(=O)N(CCCl)N=O)C(=O)Nc1nncs1 [H]

>  <responders at 25 mg/kg, %>
50

$$$$
>  <MOLECULE>
O=NN(CCCl)C(=O)N[C@@H](Cc1c[nH]c2ccccc12)C(=O)Nc1nncs1 [M]

>  <responders at 25 mg/kg, %>
83.3

$$$$
>  <MOLECULE>
CC[C@H](C)[C@H](NC(=O)N(CCCl)N=O)C(=O)Nc1nncs1 [G]

>  <responders at 25 mg/kg, %>
16.7

$$$$
>  <MOLECULE>
CC(C)[C@H](NC(=O)N(CCCl)N=O)C(=O)Nc1nncs1 [D]

>  <responders at 25 mg/kg, %>
83.3

$$$$
>  <MOLECULE>
CC(C)[C@@H](NC(=O)N(CCCl)N=O)C(=O)Nc1nncs1 [N]

>  <responders at 25 mg/kg, %>
16.7

$$$$
>  <MOLECULE>
CC(C)CC(NC(=O)N(CCCl)N=O)C(=O)Nc1nncs1 (stereo not shown) [E]

>  <responders at 25 mg/kg, %>
33.3

$$$$
>  <MOLECULE>
C[C@@H](O)[C@H](NC(=O)N(CCCl)N=O)C(=O)Nc1nncs1 (relative stereo) [L]

>  <responders at 25 mg/kg, %>
16.7

$$$$

###

Test system: P388 cancer cell
EXPERIMENT SUMMARY: Anti-tumor test, P388-inoculated mice (survival effect)
Format: in vivo
APPLIED CONDITIONS: Mus musculus, P388, ip; 25 mg/Kg/day, intraperitoneal, 24 hours and 5 days after inoculation, CDF1 mice; read-out: Survival Effect T/C
Procedure: Each experimental group was composed of six CDF1 mice. The mice were inoculated intraperitoneally with 10^6 P388 cancer cell, and the test compounds suspended in a gum arabic were administered intraperitoneally to the animals 24 hours and 5 days, respectively, after the inoculation. The survival effect of each of the compounds was expressed by the percentage of the survival days of the treated animals in each group relative to those of the control animals.
Label YES when response vs control in vivo at 25 mg/kg is strictly below 200%; otherwise label NO.

>  <MOLECULE>
CC(C)[C@@H](NC(=O)N(CCCl)N=O)C(=O)Nc1nncs1 [N]

>  <ASSIGNED CATEGORY>
NO

$$$$
>  <MOLECULE>
CC(C)C[C@@H](NC(=O)N(CCCl)N=O)C(=O)Nc1nncs1 [O]

>  <ASSIGNED CATEGORY>
YES

$$$$
>  <MOLECULE>
CC(C)[C@H](NC(=O)N(CCCl)N=O)C(=O)Nc1nncs1 [D]

>  <ASSIGNED CATEGORY>
NO

$$$$
>  <MOLECULE>
O=NN(CCCl)C(=O)NC1(C(=O)Nc2nncs2)CCCC1 [K]

>  <ASSIGNED CATEGORY>
YES

$$$$
>  <MOLECULE>
CC[C@H](C)[C@H](NC(=O)N(CCCl)N=O)C(=O)Nc1nncs1 [G]

>  <ASSIGNED CATEGORY>
NO

$$$$
>  <MOLECULE>
O=NN(CCCl)C(=O)N[C@@H](C(=O)Nc1nncs1)c1ccccc1 [I]

>  <ASSIGNED CATEGORY>
NO

$$$$
>  <MOLECULE>
C[C@@H](O)[C@H](NC(=O)N(CCCl)N=O)C(=O)Nc1nncs1 (relative stereo) [L]

>  <ASSIGNED CATEGORY>
YES

$$$$
>  <MOLECULE>
O=NN(CCCl)C(=O)N[C@@H](Cc1ccccc1)C(=O)Nc1nncs1 [J]

>  <ASSIGNED CATEGORY>
NO

$$$$
>  <MOLECULE>
CC(C)[C@H](NC(=O)N(CCCl)N=O)C(=O)O [B]

>  <ASSIGNED CATEGORY>
NO

$$$$
>  <MOLECULE>
CC(C)C[C@H](NC(=O)N(CCCl)N=O)C(=O)Nc1nncs1 [F]

>  <ASSIGNED CATEGORY>
NO

$$$$
